- assay_details: Half life in human
- Type: ADME, organism-based
- conditions: in vivo
measured_endpoint: half-life (min)
Give a bare numeral; the unit min is implied.

Please look at this compound and report its half-life: CCCC[C@H](NC(C)=O)C(=O)N[C@H]1CC(=O)NCCCC[C@@H](C(=O)O)NC(=O)[C@H](Cc2c[nH]c3ccccc23)NC(=O)[C@H](CCCNC(=N)N)NC(=O)[C@@H](Cc2ccccc2)NC(=O)[C@H](Cc2c[nH]cn2)NC1=O [BREMELANOTIDE] 120

* * *

- Test system: Rattus norvegicus
- assay_details: Antiobesity activity in Sprague-Dawley rat assessed as reduction of food intake at 3 mg/kg, sc qd measured after 7 to 24 hrs relative to control
- Assay type: functional
- Set-up: scale not given: the % may be the effect or the level left
- conditions: route subcutaneous
# key: entry, value: Activity
Give a bare numeral; the unit % is implied.

Please report the measured Activity for CCCC[C@H](NC(=O)[C@H](CO)NC(=O)[C@H](Cc1cnc[nH]1)NC(=O)[C@H](CCC(N)=O)NC(=O)[C@H](CO)NC(=O)CNC(=O)COCCOCCNC(=O)CCCCCCCCCCCCCCCc1nnn[nH]1)C(=O)N[C@H]1CCC(=O)NCCCC[C@@H](C(N)=O)NC(=O)[C@H](Cc2c[nH]c3ccccc23)NC(=O)[C@H](CCCNC(=N)N)NC(=O)[C@@H](Cc2ccccc2)NC(=O)[C@@H]2C[C@@H](O)CN2C1=O tested on Rattus norvegicus. 56
